Origin of measurements: paper doi:10.1101/2022.04.02.486817

- subject of test: AP2 α-appendage (UniProt P17427 702-938)
- Sequence (P17427 702-938): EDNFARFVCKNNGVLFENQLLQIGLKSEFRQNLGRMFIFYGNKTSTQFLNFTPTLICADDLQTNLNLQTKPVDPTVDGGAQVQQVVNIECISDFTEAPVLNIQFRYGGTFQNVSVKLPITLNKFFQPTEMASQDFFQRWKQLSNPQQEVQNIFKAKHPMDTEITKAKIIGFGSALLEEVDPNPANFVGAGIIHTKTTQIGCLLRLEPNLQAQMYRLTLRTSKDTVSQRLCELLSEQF
- experiment: ITC

binder: SEEQVSKNLFGPPLESAFDHEH [FCHO1 C peptide (residues 426-448 SEEQVSKNLFGPPLESAFDHEH)]
Kd: ~50 µM
